// endpoint Ki / system UniProt:Q07817
Sequence (Q07817 whole entry): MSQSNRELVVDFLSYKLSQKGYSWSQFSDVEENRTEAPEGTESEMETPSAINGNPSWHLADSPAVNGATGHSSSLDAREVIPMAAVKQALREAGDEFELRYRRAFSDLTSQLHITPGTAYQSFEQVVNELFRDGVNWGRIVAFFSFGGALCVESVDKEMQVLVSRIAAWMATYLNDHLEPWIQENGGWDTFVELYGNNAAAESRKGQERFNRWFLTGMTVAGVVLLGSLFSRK

- compound structure string: "CN(C)CCCNc1ccc(S(=O)(=O)NC(=O)c2nc(N3CCc4cccc(C(=O)Nc5nc6ccccc6s5)c4C3)ccc2CCc2ccccc2)cc1[N+](=O)[O-]"
  Ki: "0.017 µM"
- compound structure string: "CN(C)CCCNc1ccc(S(=O)(=O)NC(=O)c2nc(N3CCc4cccc(C(=O)Nc5nc6ccccc6s5)c4C3)sc2Cc2ccccc2)cc1S(=O)(=O)C(F)(F)F"
  Ki: "0.011 µM"
- compound structure string: "O=C(NS(=O)(=O)c1ccc(N[C@H](CCN2CCOCC2)CSc2ccccc2)c(S(=O)(=O)C(F)(F)F)c1)c1cccc(N2CCc3cccc(C(=O)Nc4nc5ccccc5s4)c3C2)n1"
  Ki: "0.012 µM"
